These entries and their values trace back to the supplement of paper PMC9112550.

# shrunken log2 fold change listing for each entry below
- System: Escherichia coli TOP10
- TEST DETAILS: shrunken log2 fold change of peptide-encoding DNA abundance (4.5 h post-induction vs induction); higher = less antimicrobial activity (less host growth inhibition)
- CONDITIONS USED: time post-induction: 4.5 h; library: site-saturation at positions 5, 18, 19, 20
ENDPOINT NAME: shrunken log2 fold change

>>> df
            sequence_string              endpoint_name  test_value
 0  RRIRSRPPRLPRPRPRPWCFPRP  shrunken log2 fold change      -0.715
 1  RRIRIRPPRLPRPRPRPPNCPRP  shrunken log2 fold change       -1.06
 2  RRIRIRPPRLPRPRPRPWSAPRP  shrunken log2 fold change      -0.649
 3  RRIRARPPRLPRPRPRPRVRPRP  shrunken log2 fold change       0.567
 4  RRIRCRPPRLPRPRPRPQDDPRP  shrunken log2 fold change      0.0976
 5  RRIRKRPPRLPRPRPRPSTMPRP  shrunken log2 fold change      -0.145
 6  RRIRYRPPRLPRPRPRPQHEPRP  shrunken log2 fold change      0.0438
 7  RRIRSRPPRLPRPRPRPKAMPRP  shrunken log2 fold change      -0.148
 8  RRIRSRPPRLPRPRPRPWMVPRP  shrunken log2 fold change      -0.267
 9  RRIRERPPRLPRPRPRPHVAPRP  shrunken log2 fold change      0.0131
10  RRIRWRPPRLPRPRPRPQQSPRP  shrunken log2 fold change     -0.0166
11  RRIRFRPPRLPRPRPRPTTFPRP  shrunken log2 fold change      -0.388
12  RRIRGRPPRLPRPRPRPTMEPRP  shrunken log2 fold change       0.751
13  RRIRSRPPRLPRPRPRPFRIPRP  shrunken log2 fold change      0.0361
14  RRIRRRPPRLPRPRPRPSPKPRP  shrunken log2 fold change       0.127
15  RRIRPRPPRLPRPRPRPMFCPRP  shrunken log2 fold change      -0.332

###

# shrunken log2 fold change listing for each entry below
- Tested on: Escherichia coli TOP10;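 also: peptides expressed intracellularly from a pBAD plasmid library in pooled LB shake-flask culture, induced with 0.3% L-arabinose, DNA abundance read by NGS, three biological replicates, DESeq2 with apeglm shrinkage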
- TEST DETAILS: shrunken log2 fold change of peptide-encoding DNA abundance (4.5 h post-induction vs induction); higher = less antimicrobial activity (less host growth inhibition)
- CONDITIONS USED: time post-induction: 4.5 h; library: site-saturation at positions 5, 18, 19, 20
ENDPOINT NAME: shrunken log2 fold change

In [3]: df
Out[3]:
            sequence_string  test_value
 0  RRIRFRPPRLPRPRPRPFGQPRP      -0.288
 1  RRIRKRPPRLPRPRPRPFDEPRP      0.0269
 2  RRIRKRPPRLPRPRPRPRFRPRP       0.276
 3  RRIRSRPPRLPRPRPRPLFKPRP      -0.127
 4  RRIRFRPPRLPRPRPRPKYFPRP      -0.758
 5  RRIRHRPPRLPRPRPRPEFEPRP      0.0692
 6  RRIRFRPPRLPRPRPRPMDMPRP      0.0169
 7  RRIRVRPPRLPRPRPRPKCHPRP      -0.242
 8  RRIRNRPPRLPRPRPRPQLQPRP     -0.0979
 9  RRIRIRPPRLPRPRPRPGGIPRP      -0.279
10  RRIRQRPPRLPRPRPRPFARPRP     -0.0149
11  RRIRRRPPRLPRPRPRPDRGPRP      -0.216
12  RRIRRRPPRLPRPRPRPQIAPRP        0.31
